- assay system: acetylcholine receptor
- assay method text: SPR, peptide at 10 uM on immobilised AchR
recorded endpoint: Binding affinity (RU)
Numbers only, in RU.

Could you tell me Binding affinity (RU) for each of these binders? They are listed below.
1. KKSYCR [6mer-1-33]
2. KRSVSR [6mer-1-23]
3. RKGQCR [6mer-1-32]

Out:
[154, 153, 121]
